Hey, just so you know, these numbers are from paper PMC7619385.

// reported ΔTm at 10 µM for each item listed
- tested_target: UniProt:E9AMP2
- assay_overview: biochemical
- Format: binding
- run_conditions: DSF, 10 µM compound, 2 µM LmxCLK1, mean of two runs; read-out: ΔTm Average
Field: numeric (°C). Do not append units.

get_value(item= `C#Cc1cccc(Nc2ncnc3cc4c(cc23)OCCOCCOCCO4)c1` , readout=ΔTm at 10 µM) returns -0.3

get_value(item= `OCCn1cc(-c2ccc3c(c2)CC/C3=N\O)c(-c2ccncc2)n1` , readout=ΔTm at 10 µM) returns -0.1

get_value(item= `Cc1cc(Nc2nc(N[C@@H](C)c3ncc(F)cn3)ncc2Cl)n[nH]1` , readout=ΔTm at 10 µM) returns 0.6

get_value(item= `NC(=O)Nc1cc(-c2cccc(F)c2)sc1C(=O)N[C@H]1CCCNC1` , readout=ΔTm at 10 µM) returns 3.3

====

- tested_target: LmxCLK1 (Leishmania mexicana, UniProt E9AMP2)
- Sequence (E9AMP2 1-422): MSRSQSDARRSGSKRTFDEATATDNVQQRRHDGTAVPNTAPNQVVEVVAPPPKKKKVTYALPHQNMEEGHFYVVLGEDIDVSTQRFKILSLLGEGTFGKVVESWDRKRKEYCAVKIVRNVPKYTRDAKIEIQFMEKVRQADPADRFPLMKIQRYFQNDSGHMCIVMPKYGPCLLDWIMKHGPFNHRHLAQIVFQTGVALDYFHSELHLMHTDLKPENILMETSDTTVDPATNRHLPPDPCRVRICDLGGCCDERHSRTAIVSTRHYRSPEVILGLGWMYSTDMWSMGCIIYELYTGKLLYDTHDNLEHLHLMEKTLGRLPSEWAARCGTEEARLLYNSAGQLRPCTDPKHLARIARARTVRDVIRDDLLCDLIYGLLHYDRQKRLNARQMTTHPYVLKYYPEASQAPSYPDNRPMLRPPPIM
- assay_overview: biochemical
- Format: binding
- run_conditions: DSF, 10 µM compound, 2 µM LmxCLK1, Run 2
// reported ΔTm Run 2 for each item listed
Field: numeric (°C). Do not append units.

chemical_structure=CC(C)(C)c1nc(-c2cccc(NS(=O)(=O)c3c(F)cccc3F)c2F)c(-c2ccnc(N)n2)s1 units_of_measure=°C recorded_value=0.0
chemical_structure=CO[C@H]1C[C@@H]2CC[C@@H](C)[C@@](O)(O2)C(=O)C(=O)N2CCCC[C@H]2C(=O)O[C@H]([C@H](C)C[C@@H]2CC[C@@H](OP(C)(C)=O)[C@H](OC)C2)CC(=O)[C@H](C)/C=C(\C)[C@@H](O)[C@@H](OC)C(=O)[C@H](C)C[C@H](C)/C=C/C=C/C=C/1C units_of_measure=°C recorded_value=0.0

Field: next compound
get_value(item= `CCn1c2ccccc2c2cc(Nc3ccnc(NCCCN4CCOCC4)n3)ccc21` , readout=ΔTm Run 2) returns 0.0

====

- tested_target: LmxCLK1 (Leishmania mexicana)
- assay_overview: biochemical
- Format: binding
metric_name: ΔTm Run 1 (°C)
Field: numeric (°C). Do not append units.

For orientation, consider the following solved cases.
compound=O=C(Cc1ccc(-c2ccc(OCCN3CCOCC3)cc2)cn1)NCc1ccccc1 recorded_value=0.2
compound=O=C(/C=C/c1ccc2ccccc2n1)c1ccncc1 recorded_value=0.2
compound=COc1cc(Nc2ncc(F)c(Nc3ccc4c(n3)NC(=O)C(C)(C)O4)n2)cc(OC)c1OC recorded_value=0.4

The recorded ΔTm Run 1 with LmxCLK1 (Leishmania mexicana) for `Nc1ccc(C(=O)Nc2cccc(-c3nc(N4CCOCC4)c4oc5ncccc5c4n3)c2)cn1` was 0.4

The recorded ΔTm Run 1 with LmxCLK1 (Leishmania mexicana) for `Nc1nc(N)c2nc(-c3cccc(O)c3)cnc2n1` was 0.1

The recorded ΔTm Run 1 with LmxCLK1 (Leishmania mexicana) for `Cc1ccc([N+](=O)[O-])cc1S(=O)(=O)N(C)/N=C/c1cnc2ccc(Br)cn12` was 0.5

The recorded ΔTm Run 1 with LmxCLK1 (Leishmania mexicana) for CN1CCC(c2c(O)cc(O)c3c(=O)cc(-c4ccccc4Cl)oc23)C1CO (stereo not shown) was 0.4

The recorded ΔTm Run 1 with LmxCLK1 (Leishmania mexicana) for CCc1cc(Nc2nccc(-c3c(-c4ccc(OC)c(C(=O)Nc5c(F)cccc5F)c4)nc4ccccn34)n2)c(OC)cc1N1CCC(N2CCN(S(C)(=O)=O)CC2)CC1 [GSK1904529A] was 0.2

The recorded ΔTm Run 1 with LmxCLK1 (Leishmania mexicana) for `CC(C)(C)n1nc(-c2ccc(Cl)cc2)c2c(N)ncnc21` was 0.2

The recorded ΔTm Run 1 with LmxCLK1 (Leishmania mexicana) for `Cc1nc(NC(=O)N2CCC[C@H]2C(N)=O)sc1-c1csc(C(C)(C)C)n1` was 0.4

====

- tested_target: LmxCLK1 (Leishmania mexicana, UniProt E9AMP2)
- assay_overview: biochemical
- Assay type: binding
- run_conditions: DSF, 10 µM compound, 2 µM LmxCLK1, mean of two runs; read-out: ΔTm Average
Response field label: string, one of y (ΔTm at 10 µM strictly below 0.1 °C) or n.

Record excerpt, results attached:
molecule="Cn1cc(-c2ccc3nnc(Sc4ccc5ncccc5c4)n3n2)cn1 [SGX-523]" qualitative_label=y
molecule="CN(C)Cc1cccc(N/C(=C2\\C(=O)Nc3cc(C(N)=O)ccc32)c2ccccc2)c1 [BIX 02188]" qualitative_label=y
molecule="O=c1cc(N2CCOCC2)oc2c(-c3ccccc3)cccc12 [LY294002]" qualitative_label=n
molecule="O=C(c1ccc(/C=C/c2n[nH]c3ccccc23)cc1)N1CCNCC1 [KW-2449]" qualitative_label=n

Let's switch to this molecule now.
q: Input CNC(=O)c1ccc(C)c(-n2c(C)cc(OCc3ccc(F)cc3F)c(Br)c2=O)c1 [PH-797804] ; condition: ΔTm at 10 µM strictly below 0.1 °C. Does it hold?
a: y
